# Tested on: Streptococcus sp. 'group A'
# ASSAY METHOD TEXT: growth inhibition of control SK(-) GAS strain, dose response, counter-screen for streptokinase expression inhibitor project, luminescence, kanamycin, BacTiterGlo, confirmation (AID 1900)
# Type: functional, organism-based
Active and inactive are the calls of the source.
REPORTED METRIC: EC50

For orientation, consider the following solved cases.
molecule=CCS(=O)(=O)c1nc(S(=O)(=O)c2ccc(C)cc2)c(NCCN2CCOCC2)s1 measured_result="> 150 µM (not active)"
molecule="O=C(NC(c1ccc(Cl)cc1)c1cc(Cl)c2cccnc2c1O)c1cccnc1 (stereo not given)" measured_result="0.73 µM (active)"
molecule=Clc1ccc(COn2c(-c3ccc(Cl)cc3)nc3ccccc32)cc1 measured_result="8.35 µM (active)"
molecule=CCOc1ccc(N(C)c2ccc(/C=C3/SC(=S)NC3=O)cc2)cc1 measured_result="5.43 µM (active)"

[Q] Write down the reported EC50 of `CCOc1ccc(-n2c(C)cc(/C=C3/C(=N)N4C(=NC3=O)SN=C4S(C)(=O)=O)c2C)cc1` , test system: Streptococcus sp. 'group A'.
[A] 0.599 µM (active)

----------
Field: IC50. Provide a value for each of the molecules that follow.
# TEST SYSTEM: SUMO-activating enzyme (Homo sapiens, UniProt Q9UBT2)
# Sequence (Q9UBE0 whole entry): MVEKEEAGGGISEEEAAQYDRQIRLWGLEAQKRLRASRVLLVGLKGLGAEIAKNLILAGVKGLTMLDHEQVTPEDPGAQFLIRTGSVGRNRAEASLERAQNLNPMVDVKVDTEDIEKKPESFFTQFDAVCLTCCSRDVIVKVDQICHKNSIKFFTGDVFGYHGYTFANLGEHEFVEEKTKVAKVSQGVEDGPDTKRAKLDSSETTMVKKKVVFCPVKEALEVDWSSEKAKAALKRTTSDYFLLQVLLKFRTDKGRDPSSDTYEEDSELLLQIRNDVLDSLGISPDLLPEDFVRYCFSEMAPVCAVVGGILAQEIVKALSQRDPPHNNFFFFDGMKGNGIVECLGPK
# Sequence (Q9UBT2 whole entry): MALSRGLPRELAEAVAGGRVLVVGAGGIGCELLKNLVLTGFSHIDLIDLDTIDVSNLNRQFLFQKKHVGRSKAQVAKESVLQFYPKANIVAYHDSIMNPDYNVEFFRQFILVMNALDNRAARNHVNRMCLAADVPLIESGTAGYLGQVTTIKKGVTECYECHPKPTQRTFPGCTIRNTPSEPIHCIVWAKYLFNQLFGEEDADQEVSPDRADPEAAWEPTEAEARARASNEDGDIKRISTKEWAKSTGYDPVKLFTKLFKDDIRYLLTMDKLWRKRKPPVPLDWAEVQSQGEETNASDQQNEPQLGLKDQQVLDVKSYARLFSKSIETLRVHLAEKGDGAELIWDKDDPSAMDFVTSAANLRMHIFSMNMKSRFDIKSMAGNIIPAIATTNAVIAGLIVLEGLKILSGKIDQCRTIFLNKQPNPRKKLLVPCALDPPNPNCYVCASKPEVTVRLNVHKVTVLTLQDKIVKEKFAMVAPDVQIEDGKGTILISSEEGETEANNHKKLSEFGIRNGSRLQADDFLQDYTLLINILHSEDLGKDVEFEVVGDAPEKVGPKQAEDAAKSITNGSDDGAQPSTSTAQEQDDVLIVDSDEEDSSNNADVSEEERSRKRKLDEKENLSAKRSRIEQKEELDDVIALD
# ASSAY METHOD TEXT: SUMOylation inhibitor hit validation, confirmation, SUMOylation inhibitor project, biochemical, AlphaScreen (AID 2018)
# Type: functional
Calls of active or inactive are those of the source.

Example molecules with recorded IC50:
structure=NC1=NC(=O)/C(=C\c2ccco2)S1 test_system="SUMO-activating enzyme (Homo sapiens, UniProt Q9UBT2)" measured_result="2.89 µM (active)"
structure=Cc1cc(C(=O)N/N=C/c2ccc(-c3ccc(C)c(Cl)c3)o2)[nH]n1 test_system="SUMO-activating enzyme (Homo sapiens, UniProt Q9UBT2)" measured_result="45.5 µM (active)"
structure=Cc1cc(/C=C2\C(=O)NN(c3ccccc3)C2=O)c(C)n1-c1ccccc1O test_system="SUMO-activating enzyme (Homo sapiens, UniProt Q9UBT2)" measured_result="40.7 µM (active)"

Shifting focus to the molecule that follows.
[Q] Reported IC50 for `COc1ccc(/C=C(\C#N)C(=O)OCC(=O)NCc2ccccc2Cl)cc1` : what is it?
[A] 42.3 µM (active)

----------
# TEST SYSTEM: Heat shock factor protein 1 (Mus musculus, UniProt P38532)
# Sequence (P38532 whole entry): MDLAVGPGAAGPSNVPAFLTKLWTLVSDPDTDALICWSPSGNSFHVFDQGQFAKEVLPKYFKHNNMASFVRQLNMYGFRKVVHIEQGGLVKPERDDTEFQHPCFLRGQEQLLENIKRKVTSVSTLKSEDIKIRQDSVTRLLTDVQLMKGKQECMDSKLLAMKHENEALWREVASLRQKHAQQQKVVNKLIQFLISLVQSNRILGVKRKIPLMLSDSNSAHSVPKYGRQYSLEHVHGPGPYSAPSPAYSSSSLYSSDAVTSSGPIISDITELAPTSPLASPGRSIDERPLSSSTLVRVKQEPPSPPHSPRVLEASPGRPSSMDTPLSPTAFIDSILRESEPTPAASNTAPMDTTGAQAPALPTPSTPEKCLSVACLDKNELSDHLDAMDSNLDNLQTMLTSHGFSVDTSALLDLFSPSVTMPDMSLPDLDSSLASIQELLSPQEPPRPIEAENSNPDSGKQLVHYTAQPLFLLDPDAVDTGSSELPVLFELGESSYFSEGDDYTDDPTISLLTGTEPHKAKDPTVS
# ASSAY METHOD TEXT: inhibition of MG132-induced HSE-luciferase signal, confirmation, cell-based, NIH3T3, luminescence, dose retest (AID 2382);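 note: NIH3T3 fibroblasts with HSF1-driven luciferase reporter stressed by proteasome inhibitor MG132; luminescence from HSF1-driven luciferase expression after 8 hours of MG132 stress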
# Format: functional
Activity calls are given as the source filed them.
REPORTED METRIC: EC50

molecule="CCCN=C(S)N1CCCC(c2nc3ccccc3[nH]2)C1 (stereo unspecified)" reported_metric=EC50 measured_result="> 195 µM (not active)"
molecule="C[N+]1(CC2COC(c3ccco3)O2)CCCCC1 (stereo unspecified)" reported_metric=EC50 measured_result="> 195 µM (not active)"

List EC50 for every entry below, keeping the order given.
1. O=C(Nc1ccc2c(c1)OCCO2)NC1(C(F)(F)F)Oc2ccccc2O1
2. CCOC(=O)n1c(SCC(N)=O)nc2ccccc21
3. Cc1ccc(-c2oc3ccccc3c(=O)c2O)cc1
4. COc1ccc(C(=O)N/C(=C\c2cccs2)c2nc3ccccc3[nH]2)cc1OC

[A]
12.5 µM (active)
> 195 µM (not active)
> 195 µM (not active)
> 195 µM (not active)

Data provenance: ChEMBL document CHEMBL1201862
